System: rat osteocalcin promoter
Experiment: OCN (osteocalcin) promoter assay in RG-15 (ROS 17/2.8) cells
Format: cell-based
pEC50: −log10 of the molar value.
Label yes for high-side pEC50 (at or above 7) and no for low-side pEC50 (below it).

Request: Please tell me: is the compound CCC(CC)(c1ccc(OCC(O)C(C)(C)C)c(C)c1)c1cc(C)c(C(=O)N2CCC[C@H]2C(=O)OC)s1 (single isomer, unassigned) [Ex. 72] at or over 7 in terms of pEC50?
Response: no

Request: Thanks! And CCCc1cc(C(CC)(CC)c2ccc(C(=O)O)s2)ccc1OCC(O)C(C)(C)C (single isomer, unassigned) [Ex. 94] ?
Response: yes

Request: Thanks! And CCC(CC)(c1ccc(OCC(O)C(C)(C)C)c(C)c1)c1cc(C)c(C(=O)NC(C)(C)C(=O)OC)s1 (single isomer, unassigned) [Ex. 76] ?
Response: yes

Request: Thanks! And CCC(CC)(c1ccc(OCC(O)C(C)(C)C)c(C)c1)c1cc(C)c(C(=O)N[C@@H](C(=O)O)C(C)C)s1 (stereo partly shown) [Ex. 87] ?
Response: no

Request: Thanks! And CCCc1cc(C(CC)(CC)c2ccc(C(=O)O)s2)ccc1OCC(O)C(C)(C)C (single isomer, unassigned) [Ex. 95] ?
Response: yes

Request: Thanks! And CCC(CC)(c1ccc(OCC(O)C(C)(C)C)c(C)c1)c1cc(C)c(C(=O)N(C)OC)s1 (single isomer, unassigned) ?
Response: yes

Just for reference, patent US7601850B2 is where these values come from.
